Origin of values: the supplement of paper PMC8728848

Target: Fuc(a1-2)[Gal(a1-4)]Gal(b1-4)GlcNAc
Test: glycan array binding signal (z-score within array); higher = stronger binding
Conditions: glycan notation: IUPAC condensed, linker removed
This is one part of a sample in which the strongest signals are shown more often than they occur.
Recorded glycan array binding signal (z-score) values for a group of binders are listed next.
Answer with the value's number alone.

The examples below pair each entry with its known result.
response.value for Epa11 (Candida glabrata) (protein) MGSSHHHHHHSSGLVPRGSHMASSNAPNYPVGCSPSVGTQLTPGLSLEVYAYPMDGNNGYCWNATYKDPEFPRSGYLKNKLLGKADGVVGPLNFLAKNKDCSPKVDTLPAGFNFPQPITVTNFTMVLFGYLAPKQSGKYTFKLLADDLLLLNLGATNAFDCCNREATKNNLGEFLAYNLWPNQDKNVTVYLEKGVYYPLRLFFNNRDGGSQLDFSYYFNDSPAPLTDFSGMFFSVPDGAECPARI (field: glycan array binding signal (z-score)) = 0.294

For this binder ( SSA (Sclerotinia sclerotiorum), A7XUK7 (protein) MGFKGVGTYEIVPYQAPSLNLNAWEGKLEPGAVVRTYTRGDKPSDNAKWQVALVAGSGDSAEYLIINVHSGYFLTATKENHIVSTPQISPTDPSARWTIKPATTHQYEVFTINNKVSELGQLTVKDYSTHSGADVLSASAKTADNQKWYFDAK ), measured glycan array binding signal (z-score) is -0.198

Next binder, please.
Just so you know, measured glycan array binding signal (z-score) for PA-IL (Pseudomonas aeruginosa) (protein) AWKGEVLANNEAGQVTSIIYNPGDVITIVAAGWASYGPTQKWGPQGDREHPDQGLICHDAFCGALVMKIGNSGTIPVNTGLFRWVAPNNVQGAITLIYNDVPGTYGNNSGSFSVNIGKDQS came out at 3.69
